test system: 786-0 renal; assay: NCI tumour cell line growth inhibition, 48 h
Quantity Name: TGI

So what's the measured TGI for this one? Cc1cc(=O)oc2cc(OCc3nc4ccccc4c(=O)[nH]3)ccc12
> 100 µM

So what's the measured TGI for this one? [O-]c1c[n+](CC[n+]2cc([O-])on2)no1
> 100 µM

So what's the measured TGI for this one? O=C(Cc1ccccc1)NNc1nc(NNC(=O)c2ccncc2)nc(Nc2ccc(Cl)cc2)n1
> 10 µM

So what's the measured TGI for this one? C=C1C(=O)O[C@H]2[C@H]1CC/C(CNS(=O)(=O)c1cccc3ccccc13)=C\CC[C@@]1(C)O[C@@H]21
3.27 µM

So what's the measured TGI for this one? CC(C)(C)c1cc(C(=O)/C=C/c2ccc3c(c2)CCO3)cc(C(C)(C)C)c1O
11.2 µM

So what's the measured TGI for this one? COc1cc(/C=C2\CC3C4CC[C@H]5C[C@@H](O)CC[C@]5(C)C4CC[C@]3(C)C2=O)cc(OC)c1OC (stereo partly specified)
> 100 µM

So what's the measured TGI for this one? Cc1ccc(CCCCCOc2ccc(C3=NCCO3)cc2)s1
> 100 µM

So what's the measured TGI for this one? O=C1c2ccccc2-c2c1c(-c1ccccc1)c1n2C2(C(=O)c3ccccc3C2=O)C2C(=O)N(c3ccccc3)C(=O)C12 (stereo unspecified)
68.9 µM

So what's the measured TGI for this one? CN(C)/C=C/c1nnnn1-c1ccc(I)cc1
> 100 µM

So what's the measured TGI for this one? CN(C)CCNC(=O)c1cc2c3ccccc3[nH]c2c2ncccc12
53.5 µM

So what's the measured TGI for this one? COc1cccc(C[C@H]2COC(=O)[C@]2(O)Cc2cccc(OC)c2)c1
> 100 µM

So what's the measured TGI for this one? Cc1ccc(/C(O)=C/c2nc3ccccc3[nH]c2=O)c(C)c1
14.7 µM

So what's the measured TGI for this one? COC(=O)c1c(O)ccc2c1c1c(n2-c2ccc(OC)cc2)C(=O)c2ccccc2C1=O
29.1 µM

So what's the measured TGI for this one? O=C(/C=C1/NC(=O)CS1)Nc1ccccc1
> 100 µM

So what's the measured TGI for this one? CN(C)c1ccc(N=Nc2cccc3ncccc23)cc1
> 100 µM

So what's the measured TGI for this one? CS/C(c1ccccc1)=[N+](/C)[O-]
> 100 µM

So what's the measured TGI for this one? OC(C/C(=N\N=C(/CC(O)(C(F)(F)F)C(F)(F)F)c1ccccc1)c1ccccc1)(C(F)(F)F)C(F)(F)F
> 10 µM

So what's the measured TGI for this one? O=C1C(=O)c2ccccc2C(O)=C1CCCCCCCCC1CCCCC1
18.9 µM

So what's the measured TGI for this one? CC12CC3CC(C1)CC(N=[N+]=[N-])(C3)C2
> 100 µM

So what's the measured TGI for this one? NS(=O)(=O)c1nnc(/N=C(/CCC(=O)O)C(=O)O)s1
> 100 µM

So what's the measured TGI for this one? O=[N+]([O-])c1ccc(NC(=S)Nc2ccccn2)cc1
> 59 µM
